- Assay Notes: blood-stage malaria parasite viability loss – strain 3D7, DAPI fluorescence, 100 nL, primary screen (AID 1184);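 also: parasites grown inside human red blood cells in medium with human serum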
- Condition Notes: P. falciparum 3D7 growth, 3 d, higher = more signal
Binary classification by z-score, with -0.8 as an inclusive lower bound for Y; all other cases are N.

| Compound | Assigned Label |
| --- | --- |
| NC(=O)NCC#Cc1ccc2c(c1)[C@]1(C(=O)N2)[C@H](c2ccc(OCCO)cc2)N2[C@H](c3ccccc3)[C@H](c3ccccc3)OC(=O)[C@H]2[C@@H]1C(=O)N1CCCCCCC1 | Y |
| C=C(/C(=C/C[C@@H](OC(=O)c1ccncc1)c1ccccc1OCCO)c1cnc2ccccc2c1)C(C)C | N |
| CCCC=C(CCC)[C@@H](NC(=O)Cc1ccccc1)c1ccc(C(=O)OC)cc1 | N |
| CC1CC/C=C\[C@H]2OC34C=CCN(Cc5ccccc5)C(=O)[C@H]3N(CCO)C(=O)[C@@H]4C2C(=O)O1 (some centres not stated) | N |
| COc1ccc(CCNC(=O)[C@@H]2c3ccccc3C(=O)N(Cc3ccccc3C(F)(F)F)[C@H]2c2ccc(CO)cc2)cc1 | Y |
| CC(=O)NCCCC[C@@H]1NC(=O)[C@@H]2C[C@H](C(=O)NCCCC[N+](C)(C)C)[C@H](c3cccc(OCCO)c3)N2C1=O | Y |
| Cc1ccc(S[C@]2(C(=O)O)CC(=O)N(Cc3ccccc3C(F)(F)F)[C@@H]2c2ccc(CO)cc2)cc1 | Y |
